target: T1, murine PILRB (mPILRB1) (mouse, UniProt Q2YFS2 29-224); experiment: flow cytometry, hybridoma conditioned medium on 293 cells expressing the target; MFI relative to 293 parental cells
T1 construct: whole, on cells; Ectopically expressed on 293 cells; also called mouse PILRB
T1 sequence (Q2YFS2 29-224): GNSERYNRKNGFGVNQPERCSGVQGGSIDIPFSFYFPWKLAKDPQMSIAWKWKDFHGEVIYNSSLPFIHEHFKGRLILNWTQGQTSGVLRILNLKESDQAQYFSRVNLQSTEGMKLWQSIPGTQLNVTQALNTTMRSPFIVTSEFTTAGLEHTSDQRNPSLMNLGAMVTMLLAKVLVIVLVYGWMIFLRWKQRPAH
# MFI relative to 293 parental cells per entry

hPA-002 (antibody, V domains shown, Mouse hybridoma antibody, tested as conditioned medium or purified; also called hPA-002 A647) VH: QVTLQESGPGILQPSQTLSLTCSFSGFSLSTFGMGVGWIRQPSGKGLEWLAHIWWDDDKYYNPALKSRLTISKDTSKNQVFLKIASVDTADIATYYCARVEDYGNPFDYWGQGTTLTVSS VL: DIQMNQSPSSLSASLGDTITITCHASQNIHVWLNWYQQKPGNIPKLLIYKASNLHTGVPSRFSGSGSGTGFTVTISSLQPEDIATYYCQQGQSYPLTFGAGTKLELK
0.3 fold over 293 parental cells
hPA-004 (antibody, V domains shown, Mouse hybridoma antibody, tested as conditioned medium or purified) VH: QVTLKESGPGMLQPSQTLSLACSFSGFSLNSFGVAVGWIRQPSGKGLEWLAHIWWDDDKSYNPALKSRLTISKDTSKNQVFLKLANVDTADTATYYCTRIADYGNHFDYWGQGTALTVSS VL: DIQMNQSPSSLSASLGDTITITCHASQNSHVWLSWYQQKPGNIPKLLIYKASNLHTGVPSRFSGSGSGTGFTLTISGLQPEDIATYYCQQGQTYPFTFGSGTKLEIK
0.6 fold over 293 parental cells

Please find the next binder below.
I'd like to know its MFI relative to 293 parental cells. The binder in question is hPA-001 (antibody, V domains shown, Mouse hybridoma antibody, tested as conditioned medium) VH: QVTLKESGPGILQPSQTLSLTCSFSGFSLTTFGMGVGWIRQPSGKGLEWLAHIWWDDDKYYNPALKSRLTISKDISKNQVFLKIANVDTADTATYYCARIEDYGNPFDYWGQGTTLTVSS VL: DIQMNQSPSSLSASLGDTITITCHASQNIHVWLSWYQQKPGNIPKLLIYKASNLHTGVPSRFSGSGSGTGFTLTISSLQPEDIATYYCQQGQSYPLTFGAGTKLELK
0.5 fold over 293 parental cells
